- TESTED_ON: T1, PUF4 RNA-binding domain (Saccharomyces cerevisiae, UniProt P25339 537-888)
- T1 sequence: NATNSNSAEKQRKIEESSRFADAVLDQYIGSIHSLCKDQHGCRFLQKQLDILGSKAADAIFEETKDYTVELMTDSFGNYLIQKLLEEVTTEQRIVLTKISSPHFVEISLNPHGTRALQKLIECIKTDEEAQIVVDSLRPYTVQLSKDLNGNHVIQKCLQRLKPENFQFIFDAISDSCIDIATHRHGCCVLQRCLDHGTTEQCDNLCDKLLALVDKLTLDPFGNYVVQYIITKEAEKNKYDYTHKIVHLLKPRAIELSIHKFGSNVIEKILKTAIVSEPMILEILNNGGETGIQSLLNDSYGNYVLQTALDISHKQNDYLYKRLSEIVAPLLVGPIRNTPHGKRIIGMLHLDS
- TEST_PROTOCOL: Mg; RNA-MaP; 20 mM Na-HEPES pH 7.4, 30 mM KOAc, 0.75 mM MgCl2, 0.1% Tween-20, 5% glycerol, 0.1 mg/mL BSA, 2 mM DTT; 25 C; 0.0125-409.6 nM protein
- EXPERIMENTAL_SETUP: tags: N-His6-TEV cleaved; C-SNAP kept, Cy3B-labelled; label: tethered on chip by stalled RNA polymerase
MEASURED_ENDPOINT: Kd
Numeric answer plus unit only.

Worked examples follow.
Ic_S2_P5E.1_K5.1_C5.1_H5.1_A5.1_[T6C]_[A7C]_F5.1_[T8C]_T5.1 (ssRNA) RNA: UUUGAUUAAUAUGAUAUCGUUCUUUCUUGUAUCCCUAUUCUUUCUCGAUAUCAUAUUAAUCUUU	9.09 nM
UCUCUUUGUAUCGUAUCUCUU (ssRNA) [Ic_S1_P4E.1_K4.1_C4.1_H4.1_A4.1_[A6C]_[T7G]_F4.1_T4.1]	12.3 nM

Consider the following items and state reported Kd for each.
1. Ie_S4_P5E.1_K5.1_C5.1_H5.1_[+4CCCTT]_A5.1_F5.1_T5.1 (ssRNA) RNA: UUUGACAACUGAUCGUUCUUUCUUGUACCCUUUUAUUAUUCUUUCUCGAUCAGUUGUCUUU
2. UCUCUUUGUAUUGCUAUCUCUU (ssRNA) [Ib_S1_P5E.1_K5.1_C5.1_H5.1_A5.1_[A7G]_F5.1_[T8C]_T5.1]
3. UCUCUUUGUACUACUAUCUCUU (ssRNA) [Ib_S1_P5E.1_K5.1_C5.1_H5.1_A5.1_[T5C]_F5.1_[T8C]_T5.1]

Data returned:
1: 9.87 nM; 2: 15.4 nM; 3: 10.9 nM
